molecular target: Thymidine phosphorylase (Escherichia coli K-12) (UniProt P07650); assay: Inhibition of Escherichia coli Thymidine Phosphorylase at a concentration of 1000 uM after 40 minutes
Sequence (P07650 whole entry, looked up): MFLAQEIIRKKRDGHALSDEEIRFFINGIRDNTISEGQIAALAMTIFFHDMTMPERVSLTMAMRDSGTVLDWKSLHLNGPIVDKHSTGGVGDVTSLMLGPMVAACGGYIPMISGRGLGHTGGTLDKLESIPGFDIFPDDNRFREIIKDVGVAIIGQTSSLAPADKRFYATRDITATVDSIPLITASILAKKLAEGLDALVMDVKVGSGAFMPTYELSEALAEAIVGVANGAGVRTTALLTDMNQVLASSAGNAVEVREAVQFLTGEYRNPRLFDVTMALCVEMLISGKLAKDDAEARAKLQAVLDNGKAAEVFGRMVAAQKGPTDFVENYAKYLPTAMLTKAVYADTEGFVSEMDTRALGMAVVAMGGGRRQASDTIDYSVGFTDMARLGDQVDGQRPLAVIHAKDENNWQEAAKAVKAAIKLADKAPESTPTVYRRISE
RECORDED_ENDPOINT: inhibition (%)

Answered cases to consult:
Cc1cn(CCCCOCP(=O)(O)O)c(=O)[nH]c1=O
17
Cc1cn(CC(O)C(O)COCP(=O)(O)O)c(=O)[nH]c1=O (stereo unspecified)
0
Cc1cn(COC/C=C\COCP(=O)(O)O)c(=O)[nH]c1=O
0
Cc1cn(CC(O)C(O)COCP(=O)(OC(C)C)OC(C)C)c(=O)[nH]c1=O (stereo unspecified)
0
Cc1cn(CCCCOCP(=O)(OC(C)C)OC(C)C)c(=O)[nH]c1=O
0

(P) O=c1[nH]c(=O)n(CCCCCCCCP(=O)(O)O)c2[nH]ccc12
(Q) CCOP(=O)(CCCCCCCCn1c(N)c(Br)c(=O)[nH]c1=O)OCC
(R) Cc1cn(CC(O)C(O)COCOCP(=O)(OC(C)C)OC(C)C)c(=O)[nH]c1=O (stereo unspecified)
Hey, can you sort those molecules up there by inhibition, smallest first? The reply should contain the labels ordered as requested.
R, Q, P
(R: 0%, Q: 16%, P: 96%)

(I) Cc1cn(CCCCCCCCCP(=O)(O)O)c(=O)[nH]c1=O
(II) Cc1cn(C/C=C\COCOCP(=O)(O)O)c(=O)[nH]c1=O
Of the pair I and II , name the member with the lesser recorded inhibition. Bench note: the answer is the label of the chosen record.
II

----------
biological target: Thymidine phosphorylase (Escherichia coli K-12) (UniProt P07650); assay: Inhibition of Escherichia coli Thymidine Phosphorylase at a concentration of 1000 uM after 60 minutes
RECORDED_ENDPOINT: inhibition (%)

Cc1cn(CC(O)C(O)COCOCP(=O)(O)O)c(=O)[nH]c1=O (centres undefined)
0
Cc1cn(CCCCOCP(=O)(OC(C)C)OC(C)C)c(=O)[nH]c1=O
0

(1) Cc1cn(CCCCOCOCP(=O)(OC(C)C)OC(C)C)c(=O)[nH]c1=O
(2) Cc1cn(CCCCCCCCCP(=O)(O)O)c(=O)[nH]c1=O
Of the pair 1 and 2 , name the member with the lesser recorded inhibition. Bench note: the answer is the label of the chosen record.
1
(1: 0%, 2: 70%)

----------
target: Thymidine phosphorylase (Escherichia coli K-12); assay: Inhibition of Escherichia coli Thymidine Phosphorylase at a concentration of 1000 uM after 40 minutes
RECORDED_ENDPOINT: inhibition (%)

Answered cases to consult:
Cc1cn(C/C=C\COCOCP(=O)(OC(C)C)OC(C)C)c(=O)[nH]c1=O
0
Cc1cn(CC(O)C(O)COCOCP(=O)(O)O)c(=O)[nH]c1=O (stereo unspecified)
0
CCOP(=O)(CCCCCCCCn1cc(C)c(=O)[nH]c1=O)OCC
0
Nc1c(Br)c(=O)[nH]c(=O)n1CCCCCCCCP(=O)(O)O
91

(1) Cc1cn(CCCCCCCCP(=O)(O)O)c(=O)[nH]c1=O
(2) Cc1cn(C/C=C\COCP(=O)(O)O)c(=O)[nH]c1=O
Out of 1 and 2 , name the one with the higher inhibition. Bench note: the answer is the label of the chosen record.
1
(1: 68%, 2: 0%)
